Entries annotated with measured CC-v2
# Tested system: Human ALDH3A1 (Homo sapiens)
# Sequence (P30838 whole entry): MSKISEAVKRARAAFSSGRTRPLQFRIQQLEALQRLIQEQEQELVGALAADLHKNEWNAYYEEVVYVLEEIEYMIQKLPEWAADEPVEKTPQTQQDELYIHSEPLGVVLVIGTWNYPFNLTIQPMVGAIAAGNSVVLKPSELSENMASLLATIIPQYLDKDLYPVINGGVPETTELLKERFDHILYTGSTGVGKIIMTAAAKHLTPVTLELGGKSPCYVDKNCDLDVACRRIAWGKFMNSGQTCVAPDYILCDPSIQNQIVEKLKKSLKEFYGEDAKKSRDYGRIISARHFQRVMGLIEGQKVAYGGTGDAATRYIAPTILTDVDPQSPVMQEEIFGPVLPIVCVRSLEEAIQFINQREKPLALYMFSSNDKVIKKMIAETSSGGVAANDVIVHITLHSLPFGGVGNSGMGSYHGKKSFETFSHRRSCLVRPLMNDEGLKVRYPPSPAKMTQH
# Experimental details: ALDH3A1 biochemical assay (benzaldehyde/NADP+, diaphorase-resazurin readout, 1,536-well)
# Condition label: Table S5, biochemical curve class
Just the number, please, no unit after it.

O=C(NCc1ccc(F)c(F)c1)c1csc(N2CCN(c3cccc(C(F)(F)F)c3)CC2)n1	-1.1

(Q) Report measured CC-v2; entry is O=C(NCc1ccc(-c2ccsc2)cc1)c1csc(N2CCN(c3cccc(C(F)(F)F)c3)CC2)n1
(A) -1.1

(Q) Read the entry CC(C)(C)c1cccc(CNC(=O)c2csc(N3CCN(c4cccc(C(F)(F)F)c4)CC3)n2)c1 and write its reported CC-v2.
(A) -1.2

(Q) Look up and state reported CC-v2 for C[S+](=N)([O-])c1cccc(CNC(=O)c2csc(N3CCN(c4cccc(C(F)(F)F)c4)CC3)n2)c1 (stereo not shown)
(A) -1.2

(Q) Identify CC-v2 associated with the molecule Cc1ccc(CNC(=O)c2csc(N3CCN(c4cccc(C(F)(F)F)c4)CC3)n2)cc1C(F)(F)F
(A) -1.1

(Q) For O=C(NCc1ccc(N2CCNC2=O)cc1)c1csc(N2CCN(c3cccc(C(F)(F)F)c3)CC2)n1 , write its CC-v2.
(A) -1.2

(Q) State its CC-v2 for this molecule: O=C(NCc1cccc(OC(F)(F)F)c1)c1csc(N2CCN(c3cccc(C(F)(F)F)c3)CC2)n1
(A) -1.1

---

# Tested system: OE19 (3A1) (Homo sapiens)
# Experimental details: Cellular ALDEFLUOR assay in OE19 cells (preferential ALDH3A1 expression)
# Condition label: Table S5, cellular curve class
Rule for this label: yes means Cell_CC-v2 is less than -1; no means Cell_CC-v2 is at least -1.

(Q) Answer whether the molecule O=C(NCc1ccc(-c2ccsc2)cc1)c1csc(N2CCN(c3cccc(C(F)(F)F)c3)CC2)n1 has Cell_CC-v2 strictly less than -1
(A) yes

(Q) Criterion: Cell_CC-v2 strictly below -1. Is it met by O=C(NCc1cccc(C(=O)N2CCCCC2)c1)c1csc(N2CCN(c3cccc(C(F)(F)F)c3)CC2)n1 ?
(A) no

(Q) Dear reviewer, please state whether Cc1ccc(CNC(=O)c2csc(N3CCN(c4cccc(C(F)(F)F)c4)CC3)n2)cc1F has Cell_CC-v2 strictly beneath -1.
(A) yes

(Q) Hi there! Is Cell_CC-v2 for O=C(Nc1ccc(CNC(=O)c2csc(N3CCN(c4cccc(C(F)(F)F)c4)CC3)n2)cc1)c1ccc(F)cc1 below -1, do you know?
(A) yes

(Q) Would you kindly verify if Cell_CC-v2 of CC(=O)c1ccc(CNC(=O)c2csc(N3CCN(c4cccc(C(F)(F)F)c4)CC3)n2)cc1 is strictly less than -1?
(A) yes

(Q) Cell_CC-v2 under -1? Item: CC1(C)Oc2ccc(CNC(=O)c3csc(N4CCN(c5cccc(C(F)(F)F)c5)CC4)n3)cc2O1
(A) yes

(Q) I'd appreciate it if you could check whether COc1cc(CNC(=O)c2csc(N3CCN(c4cccc(C(F)(F)F)c4)CC3)n2)ccc1F has Cell_CC-v2 smaller than -1.
(A) no

(Q) Cell_CC-v2 strictly < -1 for this molecule? O=C(NCc1cccc(N2CCCC2=O)c1)c1csc(N2CCN(c3cccc(C(F)(F)F)c3)CC2)n1
(A) no

(Q) Confirm or reject: Cell_CC-v2 of O=C(Nc1ccc(F)cc1)c1ccc(CNC(=O)c2csc(N3CCN(c4cccc(C(F)(F)F)c4)CC3)n2)cc1 lies strictly below -1
(A) no

(Q) For Cc1cccc(COc2ccc(CNC(=O)c3csc(N4CCN(c5cccc(C(F)(F)F)c5)CC4)n3)cc2)c1 , is the recorded Cell_CC-v2 below the cut-off of -1?
(A) yes

(Q) Field: below-cutoff. Rule: recorded Cell_CC-v2 strictly less than -1. Subject: NC(=O)c1csc(N2CCN(c3cccc(C(F)(F)F)c3)CC2)n1
(A) yes
